# PROTOCOL TEXT: Physicochemical and biopharmaceutical properties obtained in-house (PBPK input, experimental data)
# ASSAY CONDITIONS: experimental data; read-out: pKa (acid)
MEASURED QUANTITY: pKa
Form: value (number only, do not type unit).

# return recorded pKa for entry COC(=O)N[C@@H](C)CNc1nccc(-c2cn(C(C)C)nc2-c2cc(Cl)cc(NS(C)(=O)=O)c2F)n1 [encorafenib, Encorafenib]
6.97

* * *

# PROTOCOL TEXT: Study 2: PPI (rabeprazole) interaction clinical study, single oral dose of encorafenib, plasma PK and safety
# Type: in vivo, human
# ASSAY CONDITIONS: human, plasma, oral, 100 mg
MEASURED QUANTITY: AUC(0-inf)
A bare number is not enough; add the unit after it.

# return recorded AUC(0-inf) for entry COC(=O)N[C@@H](C)CNc1nccc(-c2cn(C(C)C)nc2-c2cc(Cl)cc(NS(C)(=O)=O)c2F)n1 [encorafenib, Encorafenib]
4140 ng·h/mL

* * *

# PROTOCOL TEXT: Study 2: PPI (rabeprazole) interaction clinical study, single oral dose of encorafenib, plasma PK and safety
# Type: in vivo, human
# ASSAY CONDITIONS: human, plasma, oral, 300 mg; read-out: t½ (converted)
MEASURED QUANTITY: half-life (h)
API: value field is a number in h; no unit string.

# return recorded half-life for entry `COC(=O)N[C@@H](C)CNc1nccc(-c2cn(C(C)C)nc2-c2cc(Cl)cc(NS(C)(=O)=O)c2F)n1`
15.9

* * *

# PROTOCOL TEXT: Study 1: food effect clinical study, single oral dose of encorafenib 100 mg, fasted vs high-fat meal, plasma PK and safety
# Format: in vivo, human
# ASSAY CONDITIONS: human, plasma, po, 100 mg, study 1, 100 mg single oral dose, fed, mean ± SD; read-out: Vz/F
MEASURED QUANTITY: Vd/F (L)
API: value field is a number in L; no unit string.

# return recorded Vd/F for entry `COC(=O)N[C@@H](C)CNc1nccc(-c2cn(C(C)C)nc2-c2cc(Cl)cc(NS(C)(=O)=O)c2F)n1`
262

* * *

# PROTOCOL TEXT: Study 1: food effect clinical study, single oral dose of encorafenib 100 mg, fasted vs high-fat meal, plasma PK and safety
# Format: in vivo, human
# ASSAY CONDITIONS: human, plasma, po, 100 mg, study 1, 100 mg single oral dose, fasted, GM (GCV%)
MEASURED QUANTITY: AUC(0-inf) (ng·h/mL)
API: value field is a number in ng·h/mL; no unit string.

# return recorded AUC(0-inf) for entry `COC(=O)N[C@@H](C)CNc1nccc(-c2cn(C(C)C)nc2-c2cc(Cl)cc(NS(C)(=O)=O)c2F)n1`
3120

* * *

# PROTOCOL TEXT: Study 2: PPI (rabeprazole) interaction clinical study, single oral dose of encorafenib, plasma PK and safety
# Assay type: in vivo, human
# ASSAY CONDITIONS: human, plasma, oral, 100 mg
MEASURED QUANTITY: Cmax (ng/mL)
API: value field is a number in ng/mL; no unit string.

# return recorded Cmax for entry `COC(=O)N[C@@H](C)CNc1nccc(-c2cn(C(C)C)nc2-c2cc(Cl)cc(NS(C)(=O)=O)c2F)n1`
1040
